Consider the following molecules; for each one, report its MIC.
# System: E. coli
# experiment: in vitro antibacterial activity, two-fold serial dilution in Brain-Heart Infusion Broth (MIC)
# Assay type: cell-based
# condition notes: Escherichia coli, overnight, anaerobic
# Procedure: The broth is inoculated with bacteria and with the test quinoxaline-1,4-dioxide and then it is incubated overnight under anerobic conditions. On the next day, the test is read visually. […] In vitro and in vivo activity of representative compounds of this invention, determined as aforesaid, are reported in the following tabulation for compounds of the formula: [drawing 12]
Give your result in µg/mL as a bare value.

Record CCNC(=O)c1c(CS(=O)(=O)CCCN2CCCC2)[n+]([O-])c2ccccc2[n+]1[O-] [NHCH2 CH3; drawing 16; H] ; system E. coli; MIC = 50

Summary line: CNC(=O)c1c(CS(=O)(=O)CCCN(C)C)[n+]([O-])c2ccccc2[n+]1[O-] [NHCH3; SO2 (CH2)3 N(CH3)2; H] , E. coli, reported MIC = 6.25

The reported E. coli MIC of CCCCNC(=O)c1c(CS(=O)(=O)CCO)[n+]([O-])c2ccccc2[n+]1[O-] [NHBu; SO2 CH2 CH2 OH; H] is 25

Measured MIC (E. coli), entry CNC(=O)c1c(CS(=O)(=O)CCCN2CCOCC2)[n+]([O-])c2ccccc2[n+]1[O-] [NHCH3; drawing 18; H] : 25
